Where do these numbers come from? They come from PubChem BioAssay AID1117319.

# SUBJECT OF TEST: Virion infectivity factor (Human immunodeficiency virus type 1 group M subtype B (isolate BH10)) + Virion infectivity factor (Human immunodeficiency virus type 1 group M subtype B (isolate BRU/LAI)) + Virion infectivity factor (Human immunodeficiency virus type 1 group M subtype B (isolate PCV12)) + Virion infectivity factor (Human immunodeficiency virus type 1 group M subtype B (isolate HXB2)) + DNA dC->dU-editing enzyme APOBEC-3G (Homo sapiens) (UniProt P69720+P69721+P69722+P69723+Q9HC16)
# ASSAY OVERVIEW: HIV-1 Vif–A3G interaction blockers – biochemical, TR-FRET, GST-Vif 1-94, biotin-A3G peptide, dose response retest, primary screen (AID 1117319);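 also: Vif residues 1-94 fused to GST binding biotinylated APOBEC3G peptide 110-148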
# TEST CONDITIONS: TR-FRET GST-Vif / biotin-A3G peptide binding
Records with an inconclusive call do not appear.
MEASUREMENT KIND: pIC50
# pIC50 = -log10(concentration in molar units)

• COc1ccccc1NCCC(=O)OCC(=O)NCc1ccco1 = 4.86
• CC1OC(OCC2OC(Oc3c(-c4ccc(O)cc4)oc4cc(O)cc(O)c4c3=O)C(O)C(O)C2O)C(O)C(O)C1O (stereo not given) = 4.93
• C/C(=C\C(=O)c1ccc(C)cc1)Nc1cccc(O)c1 = 4.27
• N=C1/C(=C/c2ccc(Br)o2)C(=O)N=C2SC(CC(=O)N3CCCC3)=NN12 = 4.56
• CCOC(=O)c1ccc(NS(=O)(=O)c2ccc3oc(=O)[nH]c3c2)cc1 = 4.05

Request: Return reported pIC50; argument: CCCCC1=CC2=CC(=O)C(C)(OC(=O)C3CCCC3)C(=O)C2=CO1 (stereo not given)
Response: 4.82

Request: What about this compound? C[c-]1[c-](C)[c-](C)[c-](C)[c-]1C.[Fe].c1cc2nccc(N3CCCC3)[c-]2c1 (stereo not given)
Response: 5.69

Request: What about this compound? `CC(=O)c1sc2nc(-c3ccco3)ccc2c1N`
Response: 5.56

Request: What about this compound? `c1coc(-c2nc(-c3ccco3)c(-c3ccco3)nc2-c2ccco2)c1`
Response: 6.46

Request: What about this compound? `O=C(N/N=C/c1ccc(O)c(O)c1O)/C(=C/c1ccc([N+](=O)[O-])cc1)NC(=O)c1ccccc1`
Response: 6.06

* * *

# SUBJECT OF TEST: Virion infectivity factor (Human immunodeficiency virus type 1 group M subtype B (isolate BH10)) + Virion infectivity factor (Human immunodeficiency virus type 1 group M subtype B (isolate BRU/LAI)) + Virion infectivity factor (Human immunodeficiency virus type 1 group M subtype B (isolate PCV12)) + Virion infectivity factor (Human immunodeficiency virus type 1 group M subtype B (isolate HXB2)) + DNA dC->dU-editing enzyme APOBEC-3G (Homo sapiens) (UniProt P69720+P69721+P69722+P69723+Q9HC16)
# ASSAY OVERVIEW: HIV-1 Vif–A3G interaction blockers – biochemical, TR-FRET, GST-Vif 1-94, biotin-A3G peptide, dose response retest, primary screen (AID 1117319);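 also: Vif residues 1-94 fused to GST binding biotinylated APOBEC3G peptide 110-148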
# TEST CONDITIONS: TR-FRET GST-Vif / biotin-A3G peptide binding
pIC50: −log10 of the molar value. Inconclusive results are not listed.
MEASUREMENT KIND: pIC50

Request: Return reported pIC50; argument: `O=C(O)c1cccc2cccc(-c3c4ccc(=O)c(O)c-4oc4c(O)c(O)ccc34)c12`
Response: 6.28
